# target.desc: human Thromboxane A2 Receptor (TXA2), TBXA2R (gene 6915) (UniProt P21731)
# Sequence (P21731 whole entry, looked up): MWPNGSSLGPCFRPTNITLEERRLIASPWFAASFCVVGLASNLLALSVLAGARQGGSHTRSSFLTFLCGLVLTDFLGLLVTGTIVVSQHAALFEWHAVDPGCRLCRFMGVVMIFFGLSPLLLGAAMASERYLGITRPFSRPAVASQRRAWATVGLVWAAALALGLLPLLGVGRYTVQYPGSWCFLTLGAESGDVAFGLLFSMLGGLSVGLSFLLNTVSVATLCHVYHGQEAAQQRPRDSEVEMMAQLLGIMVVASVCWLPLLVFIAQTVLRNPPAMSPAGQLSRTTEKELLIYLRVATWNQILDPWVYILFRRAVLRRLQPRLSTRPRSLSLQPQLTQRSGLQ
# method: NVS_GPCR_hTXA2: NovaScreen (NVS) G Protein-Coupled Receptor Assay for human Thromboxane A2 Receptor (TXA2) (AID 2283282);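 also: actives reduce bound radioligand signal relative to DMSO baseline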
Records with an inconclusive call do not appear. Calls of active or inactive are those of the source. The calls were made as follows: active = hit-call score of the fitted dose curve at least 0.9, where 1 is the maximum; inconclusive = response in the unintended direction; inactive = score below 0.9.
Outcome field: choose from True (active), False (inactive)

Call for entry CN(C)[C@@H]1C(=O)C(C(N)=O)=C(O)[C@@]2(O)C(=O)C3=C(O)c4c(O)cccc4[C@@](C)(O)[C@H]3[C@H](O)[C@@H]12 : False

Call for entry CC[C@H](C)[C@H]1O[C@]2(C=C[C@@H]1C)C[C@@H]1C[C@@H](C/C=C(\C)[C@@H](O[C@H]3C[C@H](OC)[C@@H](O[C@H]4C[C@H](OC)[C@@H](NC)[C@H](C)O4)[C@H](C)O3)[C@@H](C)/C=C/C=C3\CO[C@@H]4[C@H](O)C(C)=C[C@@H](C(=O)O1)[C@]34O)O2 : True

Call for entry FC(F)C(F)(F)OCC(Cn1cncn1)c1ccc(Cl)cc1Cl (centres undefined) : False

Call for entry COc1cc(OC)nc(Sc2cccc(Cl)c2C(=O)O)n1 : True

----------
# Read-out: Thrombomodulin, THBD (gene 7056)
# method: BSK_3C_Thrombomodulin: BioMAP Diversity Plus: 3C Assay for Thrombomodulin Biomarker Activity (AID 2283029)
# condition.details: primary human endothelial cells (HUVEC); actives raise or lower the signal
# Experimental: BSK_3C is a cell-based, multiplexed-readout assay that uses umbilical vein endothelium, a human vascular primary cell, with measurements taken at 24 hours after chemical dosing in a 96-well plate.BSK_3C_Thrombomodulin is an assay component measured in the BSK_3C assay. It measures Thrombomodulin antibody related to regulation of gene expression using ELISA technology.Data from the assay component BSK_3C_Thrombomodulin was analyzed into 1 assay endpoint. […]
The source made the active and inactive calls. Rule for the calls: active = hit-call score of the fitted dose curve at least 0.9, where 1 is the maximum; inactive = score below 0.9.
Outcome field: choose from yes for active, no for inactive

Solved cases (5 shown):
CCOP(=S)(Oc1cnc(C(C)(C)C)nc1)OC(C)C (stereo not drawn)	no
CCOP(=S)(OCC)Oc1ccc2c(C)c(Cl)c(=O)oc2c1	yes
CCOP(=S)(OCC)Oc1cc(C)nc(C(C)C)n1	no
N#CSCSC#N	yes
CN(C)[C@@H]1C(=O)C(C(N)=O)=C(O)[C@@]2(O)C(=O)C3=C(O)c4c(O)cccc4[C@@](C)(O)[C@H]3[C@H](O)[C@@H]12	no

Call for entry CCCOCC(=Nc1ccc(Cl)cc1C(F)(F)F)n1ccnc1 : yes

Call for entry CCOC(=O)CC(SP(=O)(OC)OC)C(=O)OCC (stereo not drawn) : no

Call for entry CNc1cnn(-c2cccc(C(F)(F)F)c2)c(=O)c1Cl : no

Call for entry COP(=O)(NC(C)=O)SC (stereo not drawn) : no

Call for entry Cc1cc(C2CC2)nc(Nc2ccccc2)n1 : yes

----------
# Read-out: Lipase C (LIPC), LIPC (gene 3990)
# method: LTEA_HepaRG_LIPC: Life Technologies and Expression Analysis (LTEA) Assay for Lipase C (LIPC) using HepaRG (AID 2283514)
# condition.details: mRNA level, 48 h; actives raise or lower the signal
Activity calls are given as the source filed them. How the source made its calls: active means hit-call score of the fitted dose curve at least 0.9, where 1 is the maximum; inactive means score below 0.9.
Outcome field: choose from active, inactive

COP(=O)(NC(C)=O)SC (configuration not stated)	inactive
CCOC(=O)COc1cc(-c2nn(C)c(OC(F)F)c2Cl)c(F)cc1Cl	inactive
CN(C)C(=O)Nc1cccc(C(F)(F)F)c1	active

Call for entry CC(COc1ccc(Oc2ccccc2)cc1)Oc1ccccn1 (configuration not stated) : inactive

Call for entry Cc1cc(C2CC2)nc(Nc2ccccc2)n1 : inactive

Call for entry CCOP(=O)(OCC)Oc1cc(C)nc(C(C)C)n1 : inactive

Call for entry CCOP(=S)(OCC)Oc1ccc([N+](=O)[O-])cc1 : inactive

Data credit: PubChem BioAssay (EPA / NIEHS)
